Listing of entries alongside the reported Purity (%).
Assay: Long-term/accelerated stability study (sealed in aluminum foil bags, 25° C./60% RH and 40° C./75% RH)
Assay type: physicochemical
Details: 40° C.-75% RH, sealed aluminum foil bag, 6 months
Express the result in % but write the number alone.

// solved cases for Purity (%) follow
{"columns": ["compound", "Purity (%)"],
 "data": [
  ["O=C(O)/C=C\\C(=O)O.[2H]C([2H])([2H])Oc1cc(C#N)ccc1[C@@H]1C(C(N)=O)=C(C)Nc2c(C)cnc(OCC)c21 [crystal form α of maleate]", 98.8],
  ["O=S(=O)(O)O.[2H]C([2H])([2H])Oc1cc(C#N)ccc1[C@@H]1C(C(N)=O)=C(C)Nc2c(C)cnc(OCC)c21 [crystal form a of sulfate]", 99.6],
  ["Br.[2H]C([2H])([2H])Oc1cc(C#N)ccc1[C@@H]1C(C(N)=O)=C(C)Nc2c(C)cnc(OCC)c21 [crystal form I of hydrobromide]", 97.9]
]}

Query compound follows.
In: Given Cl.[2H]C([2H])([2H])Oc1cc(C#N)ccc1[C@@H]1C(C(N)=O)=C(C)Nc2c(C)cnc(OCC)c21 [crystal form I of hydrochloride] , state its recorded Purity (%).
Out: 98.8

###

Test: Influencing factor stability study (open containers; light, high temperature, high humidity; 30 days)
Type: physicochemical
Conditions: open container, 60° C., 7 days
readout_type: Purity
Phrase the answer as number then unit, nothing more needed.

// solved cases for Purity follow
{"columns": ["molecule", "Purity"],
 "data": [
  ["O=S(=O)(O)O.[2H]C([2H])([2H])Oc1cc(C#N)ccc1[C@@H]1C(C(N)=O)=C(C)Nc2c(C)cnc(OCC)c21 [crystal form a of sulfate]", "99.2%"],
  ["[2H]C([2H])([2H])Oc1cc(C#N)ccc1[C@@H]1C(C(N)=O)=C(C)Nc2c(C)cnc(OCC)c21 [crystal form A]", "99.7%"],
  ["O=C(O)/C=C\\C(=O)O.[2H]C([2H])([2H])Oc1cc(C#N)ccc1[C@@H]1C(C(N)=O)=C(C)Nc2c(C)cnc(OCC)c21 [crystal form α of maleate]", "98.6%"]
]}

Query molecule follows.
In: Given Br.[2H]C([2H])([2H])Oc1cc(C#N)ccc1[C@@H]1C(C(N)=O)=C(C)Nc2c(C)cnc(OCC)c21 [crystal form I of hydrobromide] , state its recorded Purity.
Out: 99.2%

###

Assay: Influencing factor stability study (open containers; light, high temperature, high humidity; 30 days)
Assay type: physicochemical
Details: open container, 92.5% RH, 14 days
readout_type: Crystal form

{"columns": ["molecule", "result"],
 "data": [
  ["O=S(=O)(O)O.[2H]C([2H])([2H])Oc1cc(C#N)ccc1[C@@H]1C(C(N)=O)=C(C)Nc2c(C)cnc(OCC)c21 [crystal form a of sulfate]", "No change"],
  ["[2H]C([2H])([2H])Oc1cc(C#N)ccc1[C@@H]1C(C(N)=O)=C(C)Nc2c(C)cnc(OCC)c21 [crystal form A]", "No change"],
  ["Br.[2H]C([2H])([2H])Oc1cc(C#N)ccc1[C@@H]1C(C(N)=O)=C(C)Nc2c(C)cnc(OCC)c21 [crystal form I of hydrobromide]", "No change"],
  ["O=C(O)/C=C\\C(=O)O.[2H]C([2H])([2H])Oc1cc(C#N)ccc1[C@@H]1C(C(N)=O)=C(C)Nc2c(C)cnc(OCC)c21 [crystal form α of maleate]", "No change"]
]}

###

Assay: Long-term/accelerated stability study (sealed in aluminum foil bags, 25° C./60% RH and 40° C./75% RH)
Type: physicochemical
Conditions: 40° C.-75% RH, sealed aluminum foil bag, 1 month
readout_type: Purity (%)
Express the result in % but write the number alone.

// solved cases for Purity (%) follow
{"columns": ["compound", "Purity (%)"],
 "data": [
  ["Br.[2H]C([2H])([2H])Oc1cc(C#N)ccc1[C@@H]1C(C(N)=O)=C(C)Nc2c(C)cnc(OCC)c21 [crystal form I of hydrobromide]", 99.6],
  ["Cl.[2H]C([2H])([2H])Oc1cc(C#N)ccc1[C@@H]1C(C(N)=O)=C(C)Nc2c(C)cnc(OCC)c21 [crystal form I of hydrochloride]", 99.2],
  ["O=S(=O)(O)O.[2H]C([2H])([2H])Oc1cc(C#N)ccc1[C@@H]1C(C(N)=O)=C(C)Nc2c(C)cnc(OCC)c21 [crystal form a of sulfate]", 99.6]
]}

Query compound follows.
In: Given O=C(O)/C=C\C(=O)O.[2H]C([2H])([2H])Oc1cc(C#N)ccc1[C@@H]1C(C(N)=O)=C(C)Nc2c(C)cnc(OCC)c21 [crystal form α of maleate] , state its recorded Purity (%).
Out: 99.6

###

Experiment: Long-term/accelerated stability study (sealed in aluminum foil bags, 25° C./60% RH and 40° C./75% RH)
Assay type: physicochemical
Conditions: 25° C.-60% RH, sealed aluminum foil bag, 6 months
readout_type: Purity (%)
Express the result in % but write the number alone.

{"columns": ["compound", "result"],
 "data": [
  ["Cl.[2H]C([2H])([2H])Oc1cc(C#N)ccc1[C@@H]1C(C(N)=O)=C(C)Nc2c(C)cnc(OCC)c21 [crystal form I of hydrochloride]", 99.3],
  ["Br.[2H]C([2H])([2H])Oc1cc(C#N)ccc1[C@@H]1C(C(N)=O)=C(C)Nc2c(C)cnc(OCC)c21 [crystal form I of hydrobromide]", 99.7],
  ["O=C(O)/C=C\\C(=O)O.[2H]C([2H])([2H])Oc1cc(C#N)ccc1[C@@H]1C(C(N)=O)=C(C)Nc2c(C)cnc(OCC)c21 [crystal form α of maleate]", 99.6]
]}

In: Given O=S(=O)(O)O.[2H]C([2H])([2H])Oc1cc(C#N)ccc1[C@@H]1C(C(N)=O)=C(C)Nc2c(C)cnc(OCC)c21 [crystal form a of sulfate] , state its recorded Purity (%).
Out: 99.7

###

Listing of entries alongside the reported Purity.
Assay: Influencing factor stability study (open containers; light, high temperature, high humidity; 30 days)
Type: physicochemical
Settings: open container, 75% RH, 7 days
Express the result in % but write the number alone.

In: Given [2H]C([2H])([2H])Oc1cc(C#N)ccc1[C@@H]1C(C(N)=O)=C(C)Nc2c(C)cnc(OCC)c21 [crystal form A] , state its recorded Purity.
Out: 99.6

In: Given O=C(O)/C=C\C(=O)O.[2H]C([2H])([2H])Oc1cc(C#N)ccc1[C@@H]1C(C(N)=O)=C(C)Nc2c(C)cnc(OCC)c21 [crystal form α of maleate] , state its recorded Purity.
Out: 99.8

In: Given O=S(=O)(O)O.[2H]C([2H])([2H])Oc1cc(C#N)ccc1[C@@H]1C(C(N)=O)=C(C)Nc2c(C)cnc(OCC)c21 [crystal form a of sulfate] , state its recorded Purity.
Out: 99.7

In: Given Br.[2H]C([2H])([2H])Oc1cc(C#N)ccc1[C@@H]1C(C(N)=O)=C(C)Nc2c(C)cnc(OCC)c21 [crystal form I of hydrobromide] , state its recorded Purity.
Out: 99.7

###

Test: Long-term/accelerated stability study (sealed in aluminum foil bags, 25° C./60% RH and 40° C./75% RH)
Assay type: physicochemical
Settings: 0 days (initial)
readout_type: Purity (%)
Express the result in % but write the number alone.

{"columns": ["compound", "readout_type", "result"],
 "data": [
  ["Br.[2H]C([2H])([2H])Oc1cc(C#N)ccc1[C@@H]1C(C(N)=O)=C(C)Nc2c(C)cnc(OCC)c21 [crystal form I of hydrobromide]", "Purity (%)", 99.7],
  ["O=C(O)/C=C\\C(=O)O.[2H]C([2H])([2H])Oc1cc(C#N)ccc1[C@@H]1C(C(N)=O)=C(C)Nc2c(C)cnc(OCC)c21 [crystal form α of maleate]", "Purity (%)", 99.6],
  ["O=S(=O)(O)O.[2H]C([2H])([2H])Oc1cc(C#N)ccc1[C@@H]1C(C(N)=O)=C(C)Nc2c(C)cnc(OCC)c21 [crystal form a of sulfate]", "Purity (%)", 99.7]
]}

Query compound follows.
In: Given Cl.[2H]C([2H])([2H])Oc1cc(C#N)ccc1[C@@H]1C(C(N)=O)=C(C)Nc2c(C)cnc(OCC)c21 [crystal form I of hydrochloride] , state its recorded Purity (%).
Out: 99.8

###

Test: Long-term/accelerated stability study (sealed in aluminum foil bags, 25° C./60% RH and 40° C./75% RH)
Format: physicochemical
Conditions: 40° C.-75% RH, sealed aluminum foil bag, 2 months
Listing of entries alongside the reported Purity (%).
Express the result in % but write the number alone.

// solved cases for Purity (%) follow
{"columns": ["molecule", "Purity (%)"],
 "data": [
  ["Cl.[2H]C([2H])([2H])Oc1cc(C#N)ccc1[C@@H]1C(C(N)=O)=C(C)Nc2c(C)cnc(OCC)c21 [crystal form I of hydrochloride]", 98.9],
  ["O=S(=O)(O)O.[2H]C([2H])([2H])Oc1cc(C#N)ccc1[C@@H]1C(C(N)=O)=C(C)Nc2c(C)cnc(OCC)c21 [crystal form a of sulfate]", 99.7]
]}

In: Given O=C(O)/C=C\C(=O)O.[2H]C([2H])([2H])Oc1cc(C#N)ccc1[C@@H]1C(C(N)=O)=C(C)Nc2c(C)cnc(OCC)c21 [crystal form α of maleate] , state its recorded Purity (%).
Out: 99.5

In: Given Br.[2H]C([2H])([2H])Oc1cc(C#N)ccc1[C@@H]1C(C(N)=O)=C(C)Nc2c(C)cnc(OCC)c21 [crystal form I of hydrobromide] , state its recorded Purity (%).
Out: 99.4
